Test system: MCF7
protocol: Cytotoxicity against human MCF7 cells after 72 hrs by MTT assay
Assay type: functional, cell-based
runParameters: MCF7, 72 h
I'd be grateful if you could share measured pIC50 for these entries.
Expect pIC50 as a plain number equal to -log10 of the molar concentration.

What value of measured pIC50 is listed for CC(=O)O[C@H]1C(=O)[C@@]2(C)[C@H]([C@H](OC(=O)c3ccccc3)[C@]3(O)C[C@H](OC(=O)[C@H](O)[C@@H](NC(=O)c4ccccc4)c4ccccc4)C(C)=C1C3(C)C)[C@]1(OC(C)=O)CO[C@@H]1C[C@@H]2O ?
8.15

Given the compound CO[C@H]1C(=O)[C@]2(C)[C@@H](OC(=O)N(C)C)C[C@H]3OC[C@@]3(OC(C)=O)[C@H]2[C@H](OC(=O)c2ccccc2)[C@]23OC(=O)O[C@H]2[C@H](OC(=O)[C@H](O)[C@@H](NC(=O)OC(C)(C)C)c2ccccn2)C(C)=C1C3(C)C , what is its reported pIC50?
7.74

If you can, please state the reported pIC50 value of CO[C@H]1C(=O)[C@]2(C)[C@@H](OC)C[C@H]3OC[C@@]3(OC(C)=O)[C@H]2[C@H](OC(=O)c2ccccc2)[C@]23OC(=O)O[C@H]2[C@H](OC(=O)[C@H](O)[C@@H](NC(=O)OC(C)(C)C)c2ccccn2)C(C)=C1C3(C)C .
8.47

Look up pIC50 for this compound: CO[C@H]1C(=O)[C@]2(C)[C@@H](OC(=O)N(C)C)C[C@H]3OC[C@@]3(OC(C)=O)[C@H]2[C@H](OC(=O)c2ccccc2)[C@]2(O)C[C@H](OC(=O)[C@H](O)[C@@H](NC(=O)c3ccccc3)c3ccccc3)C(C)=C1C2(C)C
7.19

These entries and their values trace back to ChEMBL document CHEMBL3098054.
